System: S. aureus Smith ATCC 13709 | Read-out: MIC
Where a name gives a salt, the structure may show the parent alone.

*Q* Which MIC is listed for CC[C@@H]1OC(=O)[C@H](C)[C@H](O[C@@H]2C[C@](C)(OC)[C@H](OC(=O)CCNCCOc3ccc4c(c3)c(=O)c(C(=O)O)cn4CC)[C@H](C)O2)[C@@H](C)[C@H](O[C@@H]2O[C@H](C)C[C@H](N(C)C)[C@@H]2O)[C@](C)(O)C[C@H](C)CN(C)[C@H](C)[C@@H](O)[C@]1(C)O [Example 14, tris trifluoroacetate salt] ?
*A* ≤ 1 µg/mL

*Q* Ok, now CC[C@H]1OC(=O)[C@H](C)[C@@H](O[C@H]2C[C@@](C)(OC)[C@@H](OC(=O)CCOCCNc3cc4c(=O)c(C(=O)O)cn(C5CC5)c4cc3Cl)[C@H](C)O2)[C@@H](C)[C@@H](O[C@@H]2O[C@H](C)C[C@H](N(C)C)[C@H]2O)[C@](C)(O)C[C@@H](C)CN(C)[C@H](C)[C@@H](O)[C@]1(C)O
*A* ≤ 1 µg/mL
